Biological target: Bone morphogenetic protein receptor type-1B (Homo sapiens, UniProt O00238); also: in the data inactive means no Kd found up to 30 µM
Sequence (O00238 whole entry): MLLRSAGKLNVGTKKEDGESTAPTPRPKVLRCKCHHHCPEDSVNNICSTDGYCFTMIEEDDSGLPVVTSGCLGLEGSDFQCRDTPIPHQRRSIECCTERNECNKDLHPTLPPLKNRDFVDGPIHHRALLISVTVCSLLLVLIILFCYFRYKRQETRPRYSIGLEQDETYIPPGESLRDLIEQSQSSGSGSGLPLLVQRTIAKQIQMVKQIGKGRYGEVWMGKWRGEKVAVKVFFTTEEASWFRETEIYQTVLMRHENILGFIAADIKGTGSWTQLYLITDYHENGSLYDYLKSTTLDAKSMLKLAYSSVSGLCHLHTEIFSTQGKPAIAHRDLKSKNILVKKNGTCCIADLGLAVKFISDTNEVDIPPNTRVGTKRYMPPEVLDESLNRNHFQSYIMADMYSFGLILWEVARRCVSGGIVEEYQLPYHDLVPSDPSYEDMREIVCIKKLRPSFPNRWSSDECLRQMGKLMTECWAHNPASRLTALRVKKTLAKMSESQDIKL
Calls of active or inactive are those of the source.
Hello, when you answer, please use one of the following outcomes: y = active, n = inactive

INSERT INTO measurements (compound, group_label) VALUES
  ('Cc1nc(NC(=O)N2CCC[C@H]2C(N)=O)sc1-c1ccnc(C(C)(C)C(F)(F)F)c1 [ALPELISIB]', 'n');

Field: next compound
QUERY: I would be grateful if you could indicate the recorded call for FC(F)(F)c1ccc(/C=C/c2nc(COc3ccc(CCCCn4ccnn4)cc3)co2)cc1 [MUBRITINIB] .
RESULT: n

###

Molecular target: UniProtKB P08631
Sequence (P08631 whole entry): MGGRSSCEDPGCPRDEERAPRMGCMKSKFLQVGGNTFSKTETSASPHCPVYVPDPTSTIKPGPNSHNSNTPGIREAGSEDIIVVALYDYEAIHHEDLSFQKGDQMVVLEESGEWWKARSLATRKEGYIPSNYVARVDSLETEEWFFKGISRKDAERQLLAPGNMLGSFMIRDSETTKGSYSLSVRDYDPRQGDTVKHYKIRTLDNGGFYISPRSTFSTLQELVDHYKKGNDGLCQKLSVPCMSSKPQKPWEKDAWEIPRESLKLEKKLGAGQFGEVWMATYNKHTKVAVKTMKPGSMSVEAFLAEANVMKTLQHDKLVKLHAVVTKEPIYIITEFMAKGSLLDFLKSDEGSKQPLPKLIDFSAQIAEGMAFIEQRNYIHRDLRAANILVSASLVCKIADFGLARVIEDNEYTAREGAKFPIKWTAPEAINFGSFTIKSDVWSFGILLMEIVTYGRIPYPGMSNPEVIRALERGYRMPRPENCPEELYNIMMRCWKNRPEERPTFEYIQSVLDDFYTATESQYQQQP
Active and inactive are the calls of the source.
Hello, when you answer, please use one of the following outcomes: true for active, false for inactive

Worked cases, answers included:
INSERT INTO measurements (smiles_code, group_label) VALUES
  ('NC1(c2ccc(-c3nc4ccn5c(=O)[nH]nc5c4cc3-c3ccccc3)cc2)CCC1', 'false'),
  ('COc1cc([C@@H]2c3cc4c(cc3[C@H](O)[C@H]3COC(=O)[C@@H]23)OCO4)cc(OC)c1OC', 'false');

QUERY: I would be grateful if you could indicate the recorded call for COCC(=O)NC/C=C/c1ccc2ncnc(Nc3ccc(Oc4ccc(C)nc4)c(C)c3)c2c1 .
RESULT: false

QUERY: I would be grateful if you could indicate the recorded call for Cc1nc2cc(-c3nn(C(C)C)c4ncnc(N)c34)ccc2o1 .
RESULT: false

QUERY: I would be grateful if you could indicate the recorded call for COCc1c(-c2ccc(NC(=O)Nc3cc(C(F)(F)F)ccc3F)c(F)c2)c2c(N)ncnn2c1CN1CCOCC1 .
RESULT: false

QUERY: I would be grateful if you could indicate the recorded call for C[C@@H](Oc1cc(C(=O)Nc2ccc(C(=O)N3CCN(C)CC3)cc2)nnc1N)c1c(Cl)ccc(F)c1Cl .
RESULT: false
